The compounds listed here are annotated with their melting point.

// below: answered compounds
INSERT INTO measurements (mol, reported_measurement) VALUES
  ('COC(=O)CCCCOc1ccc2nc3[nH]c(=O)[nH]c3cc2c1', '281 to 282 °C'),
  ('Cn1c(=O)c2c(nc(Cl)n2Cc2ccc(F)cc2)n(C)c1=O', '183 to 184 °C'),
  ('COC(=O)c1nc(-c2ccc(Cl)cc2)cc(N(C)C)c1N', '153 to 154 °C'),
  ('CC(C)(C)CC(C)(C)c1cc(-n2nc3ccc([N+](=O)[O-])cc3n2)c(O)c(C(C)(C)c2ccccc2)c1', '153 to 156 °C');

// next entry
Q: Look at this compound and give its reported melting point. O=C1OC(=O)[C@@H]2CCC[C@H]12
Result: 63 to 68 °C
